- Test system: triple-negative breast cancer (MDA-MB-231) cell line
- protocolText: MTT antiproliferative assay, MDA-MB-231
- Assay type: cell-based, human
- settings: Homo sapiens, 48 h
measuredParameter: IC50 (µM)
The answer is to be given in µM; state only the numeric part.

[ask] Name the recorded IC50 for O=C(Nc1ccc2c(c1)N(C(=O)N1CCOCC1)CCC2)c1cc(C(F)(F)F)cc(C(F)(F)F)c1 [Compound 10e] .
[reply] 0.63

[ask] For O=C(Nc1ccc2c(c1)N(C(=O)C1CCOCC1)CCC2)c1ccc(OC(F)(F)F)cc1 [Compound 10a] then?
[reply] 8.16

---

- Tested on: triple-negative breast cancer (MDA-MB-231) cell line
- protocolText: MTT antiproliferative assay, MDA-MB-231
- Type: cell-based, human
- settings: Homo sapiens, 48 h
measuredParameter: IC50 (µM)
The answer is to be given in µM; state only the numeric part.

The cases that follow already have their IC50 on record.
O=C(Nc1ccc2c(c1)N(C(=O)N1CCCCC1)CCC2)c1cc(C(F)(F)F)cc(C(F)(F)F)c1 [Compound 10h]
1.29
O=C(Nc1ccc2c(c1)N(C(=O)C1CCCCC1)CCC2)c1ccc(OC(F)(F)F)cc1 [Compound 10b]
6.37
O=C(Nc1ccc2c(c1)N(C(=O)N1CCOCC1)CCC2)c1cc(F)cc(C(F)(F)F)c1 [Compound 10d]
1
O=c1[nH]cc(F)c(=O)[nH]1 [Compound 5-FU, 5-fluorouracil, reference compound]
3.39

[ask] Recorded IC50 for CO[C@H]1C[C@@H]2CC[C@@H](C)[C@@](O)(O2)C(=O)C(=O)N2CCCC[C@H]2C(=O)O[C@H]([C@H](C)C[C@@H]2CC[C@@H](OCCO)[C@H](OC)C2)CC(=O)[C@H](C)/C=C(\C)[C@@H](O)[C@@H](OC)C(=O)[C@H](C)C[C@H](C)/C=C/C=C/C=C/1C [Everolimus, reference compound] with triple-negative breast cancer (MDA-MB-231) cell line, please?
[reply] 7.76
